# credit: PubChem BioAssay (EPA / NIEHS)

read-out: Lipoprotein lipase (LPL), LPL (gene 4023); test: LTEA_HepaRG_LPL: Life Technologies and Expression Analysis (LTEA) Assay for Lipoprotein lipase (LPL) using HepaRG (AID 2283515); details: mRNA level, 48 h; actives raise or lower the signal
Active and inactive are the calls of the source. How the source made its calls: active means hit-call score of the fitted dose curve at least 0.9, where 1 is the maximum; inactive means score below 0.9.
Outcome codes: active, inactive

Clc1ccccc1Cl    inactive
CCC(C)c1ccc(O)cc1 (stereo not given)    inactive
CS(=O)(=O)NC(=O)c1cc(Oc2ccc(C(F)(F)F)cc2Cl)ccc1[N+](=O)[O-]    inactive
c1ccc2c(c1)-c1cccc3cccc-2c13    inactive
c1ccc2c(c1)oc1ccccc12    inactive
N#CC(Br)(Br)C(N)=O    inactive
CC(C)(OOC(C)(C)c1ccccc1)c1ccccc1    inactive
Cc1ccc([N+](=O)[O-])cc1    inactive
c1ccc(NNc2ccccc2)cc1    inactive
CC(C)COC(=O)c1ccccc1C(=O)OCC(C)C    inactive
ClCCOCCCl    inactive
O=C(O)C1C2CCC(O2)C1C(=O)O (stereo not given)    inactive
Cc1ccc(N=C=O)cc1N=C=O    active
ClC1=C(Cl)[C@]2(Cl)[C@H]3[C@H]([C@@H]4C=C[C@H]3C4)[C@@]1(Cl)C2(Cl)Cl    inactive
c1ccc(C2CO2)cc1 (stereo not given)    inactive

====

read-out: flavin-containing dimethylaniline monooxygenases 3 (FMO3), FMO3 (gene 2328); assay: LTEA_HepaRG_FMO3: Life Technologies and Expression Analysis (LTEA) Assay for flavin-containing dimethylaniline monooxygenases 3 (FMO3) using HepaRG (AID 2283453); conditions: mRNA level, 48 h; actives raise or lower the signal
Calls of active or inactive are those of the source. How the source made its calls: active means hit-call score of the fitted dose curve at least 0.9, where 1 is the maximum; inactive means score below 0.9.
Outcome codes: yes (1) (active), no (0) (inactive)

Cc1ccc([N+](=O)[O-])cc1    no (0)
CCCCOC(=O)c1ccccc1C(=O)OCc1ccccc1    no (0)
COP(=S)(OC)SCN1C(=O)c2ccccc2C1=O    no (0)
O=C(Oc1ccc(Br)cc1)N1CCN2CCC1CC2    no (0)
C[C@]12C=CC3=C4CCC(=O)C=C4CC[C@H]3[C@@H]1CC[C@@H]2O    yes (1)
[Cl-].[Cl-].[Hg+2]    no (0)
[O-][Cl+]O    no (0)
CCNS(=O)(=O)C(F)(F)C(F)(F)C(F)(F)C(F)(F)C(F)(F)C(F)(F)C(F)(F)C(F)(F)F    yes (1)
CN(C)C(=O)Nc1ccc(Cl)cc1    no (0)
CCN(CC)N=O    no (0)
N#CC(Br)(Br)C(N)=O    no (0)
OCCOCCO    no (0)
CN(C)c1ccccc1    no (0)
Cc1cccc(N)c1N    yes (1)

====

experiment: ACEA_AR_antagonist_AUC_viability: ACEA Biosciences xCELLigence Real-Time Cell Analysis on Androgen Receptor Antagonism for Viability (AID 2283776);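 further: 22Rv1 human prostate cancer cells growing on impedance electrode plates; area under impedance growth curve at 80 h after dosing as viability; hits lower the growth signal relative to DMSO meaning cytotoxicity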
Results filed as inconclusive are left out. The source made the active and inactive calls. Rule for the calls: active = hit-call score of the fitted dose curve at least 0.9, where 1 is the maximum; inconclusive = response in the unintended direction; inactive = score below 0.9.
Outcome codes: 1 (yes) = active, 0 (no) = inactive

c1ccc(C2CO2)cc1 (stereo not drawn)    0 (no)
CC(C)(C)OOC(=O)c1ccccc1    0 (no)
O=C(Nc1ccccc1)c1ccccc1I    0 (no)
c1ccc2c(c1)-c1cccc3cccc-2c13    1 (yes)
O=C(Oc1ccc(Br)cc1)N1CCN2CCC1CC2    0 (no)
CCNS(=O)(=O)C(F)(F)C(F)(F)C(F)(F)C(F)(F)C(F)(F)C(F)(F)C(F)(F)C(F)(F)F    0 (no)
CO[C@@H]1[C@H](OC(=O)NC(=O)CCl)CC[C@]2(CO2)[C@H]1[C@@]1(C)O[C@@H]1CC=C(C)C    1 (yes)
Clc1ccc(Cl)c(Cl)c1    0 (no)
Cc1ccc(N)cc1    0 (no)
Nc1cc(Cl)cc(C(=O)O)c1Cl    0 (no)
N#CC(Br)Br    0 (no)
CCOC(=O)[C@]1(c2ccccc2)Oc2ccccc2[C@@H]1N    1 (yes)
[As]#[In]    0 (no)

====

target: Retinoic acid receptor RXR-alpha (Homo sapiens) (UniProt P19793); experiment: OT_NURR1_NURR1RXRa_0480: Odyssey Thera (OT) 8-hour HEK293T Protein Complementation Assay for Nurr1/retinoid X receptor (RXR) (AID 2283385)
Sequence (P19793 whole entry, looked up): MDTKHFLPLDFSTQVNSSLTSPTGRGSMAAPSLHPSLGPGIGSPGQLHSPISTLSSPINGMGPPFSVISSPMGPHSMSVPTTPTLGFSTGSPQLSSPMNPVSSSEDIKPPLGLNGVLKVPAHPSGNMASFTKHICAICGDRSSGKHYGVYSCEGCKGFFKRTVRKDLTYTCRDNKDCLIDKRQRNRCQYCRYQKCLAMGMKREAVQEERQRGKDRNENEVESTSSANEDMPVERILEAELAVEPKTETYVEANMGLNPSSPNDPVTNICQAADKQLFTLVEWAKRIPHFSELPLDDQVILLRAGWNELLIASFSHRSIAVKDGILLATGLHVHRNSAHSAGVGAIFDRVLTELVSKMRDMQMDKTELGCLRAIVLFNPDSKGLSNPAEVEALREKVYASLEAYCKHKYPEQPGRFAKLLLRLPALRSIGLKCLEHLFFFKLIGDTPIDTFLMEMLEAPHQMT
Records with an inconclusive call do not appear. Activity calls are given as the source filed them. How the source made its calls: active means hit-call score of the fitted dose curve at least 0.9, where 1 is the maximum; inconclusive means response in the unintended direction; inactive means score below 0.9.
Outcome codes: class 1 for active, class 0 for inactive

O=C(Nc1ccccc1)c1ccccc1I    class 0
CCNS(=O)(=O)C(F)(F)C(F)(F)C(F)(F)C(F)(F)C(F)(F)C(F)(F)C(F)(F)C(F)(F)F    class 0
N#CC(Br)(Br)C(N)=O    class 0
ClC1=C(Cl)C2(Cl)C3C(Cl)C=CC3C1(Cl)C2(Cl)Cl (stereo unspecified)    class 0
Oc1ccccc1Cl    class 0
OCCOCCO    class 0
OCCCl    class 0
C[N+](C)(C)CC1CO1 (stereo unspecified)    class 0
Clc1ccc(Cl)c(Cl)c1    class 0
CNC(=O)Oc1cccc2c1OC(C)(C)C2    class 0
CN(C)[C@@H]1C(=O)C(C(N)=O)=C(O)[C@@]2(O)C(=O)C3=C(O)c4c(O)cccc4[C@@](C)(O)[C@H]3C[C@@H]12    class 0
Clc1ccc(C(c2ccc(Cl)cc2)C(Cl)(Cl)Cl)cc1    class 1
O=P(OCCCl)(OCCCl)OCCCl    class 0
[As]#[In]    class 0
O=Cc1ccco1    class 0
COC(=O)c1ccccc1N    class 0
Cc1cc(N=Nc2ccccc2C)ccc1N    class 0
CCCCOC(=O)c1ccccc1C(=O)OCc1ccccc1    class 0
CCC(C)c1ccc(O)cc1 (stereo unspecified)    class 0
CCOc1cccc(C2(N3CCN(c4ccccc4)CC3)CCC(C)CC2)c1 (stereo unspecified)    class 0
CC(C)(C)OOC(C)(C)CCC(C)(C)OOC(C)(C)C    class 0

====

read-out: E-selectin (Homo sapiens); assay: BSK_LPS_Eselectin: BioMAP Diversity Plus: LPS Assay for Eselectin Biomarker Activity (AID 2283077); details: primary human HUVEC with PBMC; actives raise or lower the signal
The source made the active and inactive calls. How the source made its calls: active means hit-call score of the fitted dose curve at least 0.9, where 1 is the maximum; inactive means score below 0.9.
MEASURED ATTRIBUTE: AC50

[As]#[In]    inactive
CCNS(=O)(=O)C(F)(F)C(F)(F)C(F)(F)C(F)(F)C(F)(F)C(F)(F)C(F)(F)C(F)(F)F    inactive
CCC(C)c1ccc(O)cc1 (centres undefined)    inactive
O=[N+]([O-])C(Br)(CO)CO    32.8 µM (active)
CCOC(=O)[C@]1(c2ccccc2)Oc2ccccc2[C@@H]1N    inactive
C[N+](C)(C)CC1CO1 (centres undefined)    inactive
ClC1=C(Cl)C2(Cl)C3C(Cl)C=CC3C1(Cl)C2(Cl)Cl (centres undefined)    30.6 µM (active)
COC(=O)Nc1nc2ccccc2[nH]1    inactive
Oc1ccccc1Cl    inactive
Clc1ccc(C(c2ccc(Cl)cc2)C(Cl)(Cl)Cl)cc1    31.7 µM (active)
O=C1CCCO1    inactive
Nc1cc(Cl)cc(C(=O)O)c1Cl    inactive
CN(C)C(=O)Nc1ccc(Cl)cc1    inactive
Cc1cc(N=Nc2ccccc2C)ccc1N    inactive

====

read-out: CYP4A11 (gene 1579); assay: LTEA_HepaRG_CYP4A11: Life Technologies and Expression Analysis (LTEA) Assay for CYP4A11 using HepaRG (AID 2283486); details: mRNA level, 48 h; actives raise or lower the signal
Calls of active or inactive are those of the source. Rule for the calls: active = hit-call score of the fitted dose curve at least 0.9, where 1 is the maximum; inactive = score below 0.9.
Outcome codes: true for active, false for inactive

CC(O)CCO (configuration not stated)    false
c1ccc(C2CO2)cc1 (configuration not stated)    false
CCCSC(=O)N(CCC)CCC    false
Nc1ccc(N=Nc2ccccc2)cc1    true
C[N+](C)(C)CC1CO1 (configuration not stated)    false
Nc1ccc([N+](=O)[O-])cc1    false
Cc1ccc(N)cc1    false
Oc1ccccc1Cl    false
Cc1cccc(N)c1N    true
CC(C)(C)OOC(C)(C)CCC(C)(C)OOC(C)(C)C    false
COP(=S)(OC)SCN1C(=O)c2ccccc2C1=O    false
OCCOCCO    false
C=CCc1ccc2c(c1)OCO2    false
COc1cc(C=O)cc2c1[C@H](COC(N)=O)[C@]1(OC(C)=O)ON2C[C@H]2[C@@H]1N2C(C)=O    true
CCC12COCN1COC2    false
c1ccc(NNc2ccccc2)cc1    false
Cn1cc(-c2ccccc2)c(=O)c(-c2cccc(C(F)(F)F)c2)c1    false
CO[C@@H]1[C@H](OC(=O)NC(=O)CCl)CC[C@]2(CO2)[C@H]1[C@@]1(C)O[C@@H]1CC=C(C)C    false
c1ccc(N=Nc2ccccc2)cc1    false
c1ccc2c(c1)-c1cccc3cccc-2c13    false
CCCCCOC(=O)c1ccccc1C(=O)OCCCCC    true
CC(C)(C)OOC(=O)c1ccccc1    false
CC(C)(O)c1cnn2c(-c3ccc(F)c(-c4c(F)cccc4C#N)c3)cnc2n1    true
CCCCCCCCOC(=O)c1ccc(C(=O)OCCCCCCCC)c(C(=O)OCCCCCCCC)c1    false
COC(=O)c1ccccc1N    false
CC(C)(C)C(O)(CCc1ccc(Cl)cc1)Cn1cncn1 (configuration not stated)    true
COC(=O)Nc1nc2ccccc2[nH]1    false
CC(C)COC(=O)c1ccccc1C(=O)OCC(C)C    false
CCOc1cccc(C2(N3CCN(c4ccccc4)CC3)CCC(C)CC2)c1 (configuration not stated)    false
O=C(N[C@H](c1ccccc1)[C@@H]1CN2CCC1CC2)c1c(Cl)ccc(C(F)(F)F)c1Cl    true
Clc1ccccc1Cl    false
O=[N+]([O-])c1ccc(Oc2ccc(Cl)cc2Cl)cc1    false
Nc1ccc(Oc2ccc(N)cc2)cc1    false
CCC(C)c1ccc(O)cc1 (configuration not stated)    false
O=C(O)C1C2CCC(O2)C1C(=O)O (configuration not stated)    true
CCN(CC)CCO    false
CN(C)c1ccccc1    false
OCCCBr    false
CN(C)C(=O)Nc1ccc(Cl)cc1    false
[O-][Cl+]O    false
Nc1cc(Cl)cc(C(=O)O)c1Cl    true
O=P(OCCCl)(OCCCl)OCCCl    false
CCN(CC)N=O    false
Clc1ccc(C(c2ccc(Cl)cc2)C(Cl)Cl)cc1    true
CCCCCCCCCCCCCN1CC(C)OC(C)C1 (configuration not stated)    false
O=C1CCCO1    true
CCCCOC(=O)c1ccccc1C(=O)OCc1ccccc1    false
CC(C)N(Cc1ccccc1)C(=O)C(C)(C)C    false
CC(C)(OOC(C)(C)c1ccccc1)c1ccccc1    false
Clc1ccc(C(c2ccc(Cl)cc2)C(Cl)(Cl)Cl)cc1    true
Cc1ccc([N+](=O)[O-])cc1    true
Clc1ccc(Cl)c(Cl)c1    false
